testDescription: NCI Yeast Anticancer Drug Screen. Data for the rad50 strain (AID 155);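 note: 0% = growth of vehicle-only cultures of the same strain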
experimentalParameters: S. cerevisiae rad50 strain growth inhibition; at 50.0 µM (retest, dose inferred, filed as 5.0)
This is part of a sample that, as a whole, favours compounds with a hit. Of some 79,000 tested, about 15% had one in any assay. Calls of active or inactive are those of the source. Cut-off read from the data, not from the text of the source: active = growth inhibition above about 70%; inactive = the rest.
# output must be one of active, inactive

These solved cases illustrate the format of a correct answer.
{"molecule": "O=C(/C=C/c1cccc(Br)c1)c1cccs1", "discreteLabel": "active"}
{"molecule": "Cc1ccc(NN(NC(=O)OC(C)C)C(=O)OC(C)C)cc1", "discreteLabel": "inactive"}
{"molecule": "N#Cc1c(N)[nH]c2ccc(Sc3ccccc3)cc12", "discreteLabel": "inactive"}
{"molecule": "O=c1c2ccccc2ncn1COCc1ccccc1", "discreteLabel": "inactive"}
{"molecule": "O=Nc1cccnc1N=O", "discreteLabel": "active"}
{"molecule": "c1ccc(-c2ccnc3c2ccc2c(-c4ccccc4)ccnc23)cc1", "discreteLabel": "active"}
{"molecule": "COc1ccccc1N=NC(C(=O)c1ccccc1)C(=O)c1ccccc1", "discreteLabel": "active"}
{"molecule": "C#CCCCc1ccccc1", "discreteLabel": "inactive"}

Problem: Outcome? Cc1[nH]c2ccccc2c1C(c1ccc(N)cc1)c1c(C)[nH]c2ccccc12
Solution: active

Problem: Outcome? O=C(OCCN1CCCCCC1)C(c1ccsc1)C1CCCCC1 (stereo not drawn)
Solution: inactive

* * *

testDescription: NCI Yeast Anticancer Drug Screen. Data for the wt2 strain (AID 169);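 note: 0% = growth of vehicle-treated yeast cultures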
experimentalParameters: S. cerevisiae wt2 strain growth inhibition; at 3.7 µM; stronger effect = higher value
Compounds without any hit were thinned out: in the full panel of roughly 79,000, 15% have a hit. Calls of active or inactive are those of the source. No stated cut-off is given here; in the data, active means growth inhibition above about 70%; inactive means the rest.
reportedProperty: growth inhibition

{"compound": "O=C1c2ccccc2C(=O)c2cc(CBr)ccc21", "growth inhibition": "3% (inactive)"}
{"compound": "CN(C)CCn1c2c3ccccc3ccc2c2oc(=O)c3ccccc3c21", "growth inhibition": "3% (inactive)"}
{"compound": "Brc1ccc(-c2cc3c(cc2C2SCCS2)OCO3)cc1", "growth inhibition": "-11% (inactive)"}
{"compound": "COc1ccccc1/C=C1\\Sc2scc(-c3cccc([N+](=O)[O-])c3)[n+]2C1=O", "growth inhibition": "59% (inactive)"}
{"compound": "O=C(O)C1CCCCC1c1c2ccc(=O)c(O)c-2oc2c(O)c(O)ccc12 (stereo not given)", "growth inhibition": "-23% (inactive)"}

Entry N#CN1C2CCC1CC(=O)C2 — recorded growth inhibition = -16% (inactive)

Entry OC1CCCc2c1cc1ccc3cccc4ccc2c1c34 (stereo not given) — recorded growth inhibition = 10% (inactive)

Entry Cn1c(=O)c2ccccc2c2ccccc21 — recorded growth inhibition = -1% (inactive)

Entry Cn1c(=O)c(-c2ccccc2)c(N=[N+]=[N-])c2ccccc21 — recorded growth inhibition = -29% (inactive)

Entry O=C(O)c1cccc(-c2c3ccc(=O)cc-3oc3cc(O)ccc23)c1 — recorded growth inhibition = -31% (inactive)

Entry CCN(CC)CCC(=O)c1ccc(Oc2ccc(F)cc2)cc1 — recorded growth inhibition = 21% (inactive)

Entry CC(=O)Oc1ccc2c(c1)Cc1cc(N=C3C=CC(=O)O3)ccc1-2 — recorded growth inhibition = 36% (inactive)

Entry S=C(N/N=C/c1ccccn1)Nc1ccc(Cl)cc1 — recorded growth inhibition = -6% (inactive)

Entry O=[N+]([O-])C(=C(Sc1ccccc1)Sc1ccccc1)C(Cl)=C(Cl)Cl — recorded growth inhibition = 15% (inactive)

Entry CSC1=NNC(SC)=NN1 — recorded growth inhibition = 1% (inactive)

Entry CCN(CC)[P+](c1ccccc1O)(N(CC)CC)N(CC)CC — recorded growth inhibition = -13% (inactive)

These data points were gathered from PubChem BioAssay (NCI).
